All values here come from the supplement of paper PMC6757056.

Parameter normalized RNA/DNA level without ligand (log10): see the listing below.
B1: library; a variant is named by its letters at N, in order (parent)
chain: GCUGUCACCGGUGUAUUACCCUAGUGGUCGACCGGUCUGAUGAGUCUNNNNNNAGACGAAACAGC

variants of: B1; assay: normalized RNA/DNA level without ligand (relative to sTRSVctl = 100) (log10 (% of sTRSVctl)); ligand: hypoxanthine (xanthine aptamer); higher = less ribozyme self-cleavage, higher mRNA level; settings: HEK293T, reporter: mCherry (pCS4076), ligand present: no
The answer should be written as a number, with no unit following it.

Example variants with recorded normalized RNA/DNA level without ligand (log10):
- mutation.annotation: "CAGACC"
  val: 1.96
- mutation.annotation: "GACACC"
  val: 1.86
- mutation.annotation: "CAUAAA"
  val: 1.74
- mutation.annotation: "AGGUGG"
  val: 1.39
- mutation.annotation: "GAACAU"
  val: 1.77
- mutation.annotation: "UUCUAC"
  val: 1.89
- mutation.annotation: "GUAUCU"
  val: 1.94
- mutation.annotation: "ACACCA"
  val: 1.87
- mutation.annotation: "AGCCCG"
  val: 1.61
- mutation.annotation: "CGAACG"
  val: 1.8

// query What measured normalized RNA/DNA level without ligand (log10) goes with UACGUA ?
// result 1.83

// query What measured normalized RNA/DNA level without ligand (log10) goes with AUACCA ?
// result 1.88
